B1: hCD160-6×His tag protein [human] / WT hHVEM (L39-V202) fused with a PD-L1 transmembrane domain and EGFP, on cells [human] (parent complex)
chain 1: GCINITSSASQEGTRLNLICTVWHKKEEAEGFVVFLCKDRSGDCSPETSLKQLRLKRDPGIDGVGEISSQLMFTISQVTPLHSGTYQCCARSQKSGIRLQGHFFSILFTETGNYTVTGLKQRQHLEFSHNEGTLS
chain 2: LPSCKEDEYPVGSECCPKCSPGYRVKEACGELTGTVCEPCPPGTYIAHLNGLSKCLQCQMCDPAMGLRASRNCSRTENAVCGCSPGHFCIVQDGDHCAACRAYATSSPGQRVQKGGTESQDTLCQNCPPGTFSPNGTLEECQHQTKCSWLVTKAGAGTSSSHWV

- Variants of: B1
- assayDetails: flow cytometry on cells stained with soluble protein
endpointLabel: ratio to parent

Example cases with answers are listed next.
chain 2 L56A | 1.1
chain 2 N50A | 0.8
chain 2 L52A | 1.1

(A) chain 2 G51A
(B) chain 2 L49A
[ask] Returns the identifier with the smallest measured ratio to parent among A and B . Give the chosen item's label as your response.
[reply] A
(A: 0.9, B: 1.3)
